Answer each item with its documented melting point.

• CS(=O)(=O)c1ccc(C2=NCc3c(F)cccc3-n3cccc32)cc1 = 92 to 95 °C
• CS(=O)(=O)c1cccc(C2=NCc3c(Cl)cc(Cl)cc3-n3cccc32)c1 = 221.2 to 221.5 °C

Need melting point for each of these molecules.
1. CC(O)c1ccc(C2NCc3c(Cl)cccc3-n3cccc32)cc1 (stereo not drawn)
2. CC(=O)c1ccc(C2NCc3c(Cl)cc(Cl)cc3-n3cccc32)cc1 (stereo not drawn)
3. CS(=O)(=O)c1ccc(C2=NCc3c(Cl)cccc3-n3cccc32)cc1

1. 118.5 to 121.2 °C
2. 204.8 to 206.6 °C
3. 218.5 to 219.9 °C

GET /value?item= CC(=O)c1ccc(C2=NCc3ccc(Cl)cc3-n3cccc32)cc1 &field=melting point returns 114.4 to 115.7 °C

====

Lab note: pIC50 readings collected with Cytochrome P450 2D6 (Homo sapiens, UniProt P10635) for the following compounds.
Sequence (P10635 whole entry): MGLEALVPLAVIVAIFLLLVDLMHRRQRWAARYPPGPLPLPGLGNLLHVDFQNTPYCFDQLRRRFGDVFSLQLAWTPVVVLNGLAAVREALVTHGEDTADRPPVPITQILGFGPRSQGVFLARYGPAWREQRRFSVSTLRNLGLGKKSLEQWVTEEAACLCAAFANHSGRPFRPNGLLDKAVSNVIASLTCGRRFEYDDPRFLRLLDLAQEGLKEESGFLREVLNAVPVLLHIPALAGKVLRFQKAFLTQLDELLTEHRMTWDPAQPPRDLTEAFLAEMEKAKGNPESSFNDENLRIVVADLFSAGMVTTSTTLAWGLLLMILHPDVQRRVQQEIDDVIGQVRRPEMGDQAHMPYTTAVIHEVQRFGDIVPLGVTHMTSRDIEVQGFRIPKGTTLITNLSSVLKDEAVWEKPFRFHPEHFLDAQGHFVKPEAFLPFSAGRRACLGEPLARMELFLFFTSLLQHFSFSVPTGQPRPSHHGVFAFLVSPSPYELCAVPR
Answers are plain numbers, as −log10 of the molar value.

- CCc1cccc(C2NCc3c(Cl)cccc3-n3cccc32)c1 (stereo not drawn): 5.70
- Br.CCc1ccc(C2NCc3c(Cl)cccc3-n3cccc32)cc1 (stereo not drawn): 5.70
- CS(=O)(=O)c1ccc(C2=NCc3c(Cl)cccc3-n3cccc32)cc1 [drawing 93]: 5.12
- CC(=O)c1ccc(C2NCc3c(Cl)cccc3-n3cccc32)cc1 (stereo not drawn) [drawing 94]: 5.50

Need pIC50 for each of these compounds.
1. CCc1ccc(C2NCc3ccc(Cl)cc3-n3cccc32)cc1 (stereo not drawn)
2. CC(=O)c1ccc(C2NCc3ccc(Cl)cc3-n3cccc32)cc1 (stereo not drawn) [drawing 101]
3. CCc1ccc(C2NCc3c(Cl)cccc3-n3cccc32)cc1 (stereo not drawn)
4. Br.CC(=O)c1ccc(C2NCc3c(Cl)cccc3-n3cccc32)cc1 (stereo not drawn) [drawing 96]

1: 5.40; 2: 5.10; 3: 5.50; 4: 5.70

GET /value?item= CC(=O)c1cccc(C2NCc3c(Cl)cccc3-n3cccc32)c1 (stereo not drawn) [drawing 99] &field=pIC50 returns 5.50

====

Protocol Text: Liver metabolic stability assay, gpLM
Type: in vitro ADME, guinea pig
Run Conditions: guinea pig microsomes, 1 mg protein/ml, 5 μM test compound, 15 min, 37 °C
Description: Liver preparations (microsomal fractions) were obtained from BD Gentest (San Jose, Calif., US). Metabolic stability was assessed using the following assay conditions. […] The mixture was pre-incubated at 37° C. for 5 min and the enzymatic reaction was started by addition of 5 μM test compound. […] The supernatant was analysed by LC-MS/MS on a ThermoFinnigan LCQ Deca XP ion-trap mass spectrometer equipped with an atmospheric pressure chemical ionisation source. […]
Measurement Type: %-compound metabolised Met_gpLM (%)
Numbers only, in %.

In the examples that follow, each entry is paired with its recorded %-compound metabolised Met_gpLM.
* CC(=O)c1ccc(C2=NCc3ccc(Cl)cc3-n3cccc32)cc1 | 36
* CC(=O)c1ccc(C2=NCc3c(ccc(Cl)c3Cl)-n3cccc32)cc1.Cl | 64
* CC(=O)c1ccc(C2=NCc3cccc(Cl)c3-n3cccc32)cc1 | 44
* CC(=O)c1ccc(C2=NCc3c(F)cccc3-n3cccc32)cc1 | 88
* CS(=O)(=O)c1ccc(C2=NCc3c(Cl)cccc3-n3cccc32)cc1 | 21

Need %-compound metabolised Met_gpLM for each of these molecules.
1. CC(=O)c1cc(C2=NCc3c(Cl)cc(Cl)cc3-n3cccc32)ccc1F
2. CC(=O)c1ccc(C2NCc3c(Cl)cccc3-n3cccc32)cc1.Cl (stereo not drawn)
3. CC(=O)c1ccc(C2=NCc3c(Cl)cccc3-n3cccc32)cc1
4. CC(=O)c1cccc(C2=NCc3c(Cl)cccc3-n3cccc32)c1

39
88
84
100
